What melting point was measured for each of the following?

Look over these answered cases.
{"COMPOUND": "CCCn1nc2c(N)nc3ccccc3c2c1CCN(C(N)=O)c1ccc(F)cc1", "melting point": "201 to 202 °C"}
{"COMPOUND": "CCC(=Cc1ccccc1)C(=O)c1ccc(OC)c(Cl)c1Cl", "melting point": "127 to 130 °C"}
{"COMPOUND": "CC(C)NCC(O)(Cn1cncn1)c1ccc(Cl)cc1Cl (stereo unspecified)", "melting point": "132 to 133 °C"}
{"COMPOUND": "Cn1cc(C(=O)NCc2ccc(Cl)cc2)c(=O)c2cc(CN3CCOCC3)cc(I)c21", "melting point": "156 to 158 °C"}
{"COMPOUND": "CC(=O)NC(Cc1ccccc1)C(C)=O (stereo unspecified)", "melting point": "96 to 97 °C"}
{"COMPOUND": "c1cnc(-c2n[nH]c(-c3cnccn3)n2)cn1", "melting point": "269 to 270 °C"}

Give melting point for all compounds that follow.
1. COC(=O)c1cc(-c2nc3ccccc3s2)cc2c1OC(c1ccccc1)(c1ccccc1)O2
2. c1cc2c(N3CCNCC3)csc2cn1
3. CCCn1c(=O)c2[nH]c(C3CCCS3)nc2n(CCC)c1=O (stereo unspecified)
4. N#Cc1ccc(C(=O)N2CCN(c3ccncc3)CC2)cc1
5. CCCCN(C)CCOc1ccc(-n2c(-c3ccc(O)cc3)c(C)c3cc(O)ccc32)cc1
6. CCCCCCC(Cc1ccc(OCCN2CCCCCC2)cc1)(C(=O)NO)S(=O)(=O)c1ccc(OC)cc1 (stereo unspecified)
7. Nc1cc(-n2cc(C(=O)O)c(=O)c3ccc(Cl)nc32)c(F)cc1F
8. CC(C)(C)OC(=O)Nc1ccc(NC(=O)CCCCC2CCSS2)cc1 (stereo unspecified)

**A:**
1: 184 to 185 °C; 2: 126 to 128 °C; 3: 224 to 226 °C; 4: 164 to 165 °C; 5: 102 to 107 °C; 6: 65 °C; 7: > 270 °C; 8: 190 to 195 °C

Parameters: items (list). Returns: melting point for each item.
1. CCc1cc2c(NCCc3ccccc3)ccnc2s1
2. Cc1nn(Cc2ccccc2)cc1C(=O)Nc1ccc(N2CCC(N3CCOCC3)CC2)c(C#N)c1
3. C#CC[C@H]1C(=O)O[C@@H]1C[C@@H](CCCCCCCCCCCCCCCCC)O[Si](C)(C)C(C)(C)C
4. CCOC(=O)c1cnc(O)nc1Cc1ccccc1
5. CCOC(=O)c1cnc2ccc(C3CCCCCC3)cc2c1Cl
6. Cc1ccc2nc(N)nc(N)c2c1-c1cc(C(F)(F)F)cc(C(F)(F)F)c1
7. CNC(=O)c1cccc(NC(=O)COc2ccccc2OC)c1

**A:**
["88 °C", "193 °C", "62 to 63 °C", "57 to 61 °C", "61 to 62 °C", "222 to 225 °C", "133 °C"]

Hey, just so you know, these numbers are from a melting point compilation (Tetko et al.; mined from patent text by program, amines drawn as free bases though some values may be those of a salt).
